experimental.target: T1, RADIL, Q96JH8
T1 sequence (Q96JH8 971-1071, limits assumed, looked up): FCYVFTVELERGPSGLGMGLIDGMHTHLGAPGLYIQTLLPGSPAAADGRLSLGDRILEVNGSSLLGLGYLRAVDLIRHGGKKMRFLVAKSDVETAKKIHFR
test.name: holdup assay
Set-up: key: below the threshold = too weak to quantify, mostly under pKd 3.1 to 4
applied.conditions: plain residues with an end cap or a label only (N-terminal biotin on a linker: ttds)

>  <binder>
NPDALPETLV [ARHGAP6, O43182]

>  <pKd>
4.08

$$$$
>  <binder>
GRLLGLETNV [ARHGEF26, Q96DR7]

>  <pKd>
below the threshold

$$$$
>  <binder>
PFRSRSPSEV [GPR6, P46095]

>  <pKd>
below the threshold

$$$$
